biological target: ROCK2 (human); experiment: radiometric filter-binding kinase assay, Kinase HotSpot; settings: compound 0.5 µM; ATP 10 µM
assay metric: residual activity (%)
Numeric only. Scale: %

Using the record for "CCOc1cc2ncnc(Nc3cccc(Br)c3)c2cc1OCC" , report its residual activity.
91.8

Using the record for "COc1cc2c(N3CCN(C(=O)Nc4ccc(OC(C)C)cc4)CC3)ncnc2cc1OCCCN1CCCCC1" , report its residual activity.
90.8

Using the record for "COc1cccc(-c2cc(=O)c3ccccc3o2)c1N" , report its residual activity.
91.5

Using the record for "COc1cc2c(Nc3ccc(Br)cc3F)ncnc2cc1OCC1CCN(C)CC1" , report its residual activity.
90.7

Using the record for "c1ccc(-c2cnc(Nc3ccc(OCCN4CCCC4)cc3)s2)cc1" , report its residual activity.
91.7
